Taken from ChEMBL document CHEMBL4834419.

Tested target: UniProt:P19793
Experimental protocol: Agonist activity at human RXRalpha transfected in human HEK293T cells co-expressing pFR/pRL-Luc incubated for 14 to 16 hrs by hybrid reporter gene assay
Measurement type: EC50 (nM)
Please reply with the bare figure in nM and do not write the unit itself.

See these solved cases before continuing.
1. O=C(O)CCc1nc(-c2ccccc2)c(-c2cc(Cl)cc(Cl)c2)o1; 60
2. O=C(O)CCc1cc(-c2cc(Cl)cc(Cl)c2)n(-c2ccc(F)cc2)n1; 430

Lab note: measured EC50 of `COc1ccc(-n2nc(CCC(=O)O)cc2-c2cc(Cl)cc(Cl)c2)cc1` was 1600

The molecule listed as `O=C(O)CCCc1cc(-c2cc(Cl)cc(Cl)c2)n(-c2ccccc2)n1` shows EC50 equal to 250

Data point: `O=C(O)CCc1nc(-c2ccccc2)c(-c2ccc(Cl)c(Cl)c2)o1` ; EC50 = 510

Given item `O=C(O)CCc1nc(-c2ccccc2)c(-c2cccc(C(F)(F)F)c2)o1` , the value recorded as its EC50 is 70

Reported EC50 for `O=C(O)CCc1nc(-c2ccccc2)c(-c2cc(C(F)(F)F)cc(C(F)(F)F)c2)o1` was 50

The molecule listed as `O=C(O)CCc1nc(-c2ccc(Cl)c(Cl)c2)c(-c2ccccc2)o1` has a reported EC50 of 620

* * *

Tested target: UniProt:P48443
Sequence (P48443 whole entry): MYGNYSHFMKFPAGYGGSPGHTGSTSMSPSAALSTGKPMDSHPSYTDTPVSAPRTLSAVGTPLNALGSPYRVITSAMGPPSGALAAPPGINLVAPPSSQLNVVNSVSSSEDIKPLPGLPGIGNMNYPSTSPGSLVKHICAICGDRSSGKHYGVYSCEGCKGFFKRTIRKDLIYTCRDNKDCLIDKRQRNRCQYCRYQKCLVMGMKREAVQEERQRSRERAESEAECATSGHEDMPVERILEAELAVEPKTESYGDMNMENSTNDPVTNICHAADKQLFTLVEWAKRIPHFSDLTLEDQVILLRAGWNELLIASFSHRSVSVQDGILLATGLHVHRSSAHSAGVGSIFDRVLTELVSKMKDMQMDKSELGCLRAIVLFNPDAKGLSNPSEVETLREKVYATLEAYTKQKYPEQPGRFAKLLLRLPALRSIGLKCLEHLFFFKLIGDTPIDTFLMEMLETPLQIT
Experimental protocol: Agonist activity at human RXRgamma transfected in human HEK293T cells co-expressing pFR/pRL-Luc incubated for 14 to 16 hrs by hybrid reporter gene assay
Rule: EC50 below 4 µM gives label 1, anything at or above gives label 0.

1) O=C(O)CCc1nc(-c2ccccc2)c(-c2cccc(Cl)c2Cl)o1; label 1

Request: I'd appreciate it if you could check whether `O=C(O)CCc1cc(-c2cc(Cl)cc(Cl)c2)n(-c2ccccc2)n1` has EC50 smaller than 4 µM.
Result: label 1

Request: Item `O=C(O)c1nc(-c2ccccc2)c(-c2ccccc2)o1` : EC50 beneath 4 µM, strictly?
Result: label 0

Request: Given `Cc1ccccc1-c1oc(CCC(=O)O)nc1-c1ccccc1` , is recorded EC50 strictly lower than 4 µM?
Result: label 0

Request: Is 4 µM strictly greater than the molecule's reported EC50? molecule: `O=C(O)CCc1nc(-c2ccccc2)c(-c2cccc(C(F)(F)F)c2)o1`
Result: label 1

Request: # check: EC50 < 4 µM for `O=C(O)CCc1nc(-c2cccc(Cl)c2)c(-c2ccccc2)o1`
Result: label 0

Request: Report whether reported EC50 is lower than 4 µM (strictly) for `O=C(O)CCc1nc(-c2ccc(Cl)cc2)c(-c2ccccc2)o1`
Result: label 1

* * *

Tested target: Retinoic acid receptor RXR-beta (Homo sapiens, UniProt P28702)
Sequence (P28702 whole entry): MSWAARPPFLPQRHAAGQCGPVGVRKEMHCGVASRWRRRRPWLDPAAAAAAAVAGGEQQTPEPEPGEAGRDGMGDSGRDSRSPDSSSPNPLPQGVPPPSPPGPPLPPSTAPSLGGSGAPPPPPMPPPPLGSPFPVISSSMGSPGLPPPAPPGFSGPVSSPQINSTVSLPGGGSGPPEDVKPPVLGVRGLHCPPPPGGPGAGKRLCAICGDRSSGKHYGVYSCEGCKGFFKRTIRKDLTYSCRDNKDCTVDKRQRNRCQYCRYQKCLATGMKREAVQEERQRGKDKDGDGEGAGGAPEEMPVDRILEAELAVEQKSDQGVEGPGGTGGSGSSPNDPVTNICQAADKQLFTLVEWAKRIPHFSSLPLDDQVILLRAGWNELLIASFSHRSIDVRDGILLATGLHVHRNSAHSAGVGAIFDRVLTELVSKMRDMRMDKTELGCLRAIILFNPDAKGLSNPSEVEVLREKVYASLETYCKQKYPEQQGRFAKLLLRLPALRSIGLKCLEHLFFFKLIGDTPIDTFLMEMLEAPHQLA
Experimental protocol: Agonist activity at human RXRbeta transfected in human HEK293T cells co-expressing pFR/pRL-Luc incubated for 14 to 16 hrs by hybrid reporter gene assay
Measurement type: pEC50
# pEC50 = -log10(concentration in molar units)

1. O=C(O)CCc1nc(-c2ccc(Cl)cc2)c(-c2cc(Cl)cc(Cl)c2)o1; 6.54
2. O=C(O)CCc1nc(-c2ccccc2)c(-c2cccc(Cl)c2)o1; 6.22
3. Cc1cc(C)cc(-c2oc(CCC(=O)O)nc2-c2ccccc2)c1; 6.05

Attention now turns to another entry.
// sample `O=C(O)CCc1nc(-c2ccccc2)c(-c2cc(Cl)cc(Cl)c2)o1` , its pEC50 was 7.30

* * *

Experimental protocol: Cmax in po dosed rat
Format: ADME, organism-based
Design: route oral
Assay setup: in vivo
Measurement type: Cmax (µg/mL)
Please state the figure in µg/mL; there is no need to write the unit.

Reported Cmax for `C=C(c1ccc(C(=O)O)cc1)c1cc2c(cc1C)C(C)(C)CCC2(C)C` was 0.6

* * *

Experimental protocol: Aqueous solubility of compound in pH 8 phosphate buffer incubated for 1 hr by HPLC analysis
Format: physicochemical
Assay setup: buffer, pH 8, 1 h
Measurement type: solubility (µg/mL)
Reply numerically in µg/mL, unit not repeated.

// solubility lookup, compound = `C=C(c1ccc(C(=O)O)cc1)c1cc2c(cc1C)C(C)(C)CCC2(C)C` , result: 0.3

* * *

Tested target: UniProt:P28702
Experimental protocol: Agonist activity at human RXRbeta transfected in human HEK293T cells co-expressing pFR/pRL-Luc incubated for 14 to 16 hrs by hybrid reporter gene assay
List of pEC50 values.
Just so you know, pEC50 here is -log10 of the concentration in molar units; reply with that number alone.

Example entries and their recorded answers appear below.
1. O=C(O)CCc1nc(-c2ccccc2Cl)c(-c2ccccc2)o1; 4.32
2. Cc1ccc(-c2oc(CCC(=O)O)nc2-c2ccccc2)cc1; 5.80
3. O=C(O)CCc1nc(-c2cc(Cl)cc(Cl)c2)c(-c2cc(Cl)cc(Cl)c2)o1; 5.82
4. COc1ccc(-n2nc(CCC(=O)O)cc2-c2cc(Cl)cc(Cl)c2)cc1; 5.85
5. O=C(O)CCc1nc(-c2cccc(Cl)c2)c(-c2ccccc2)o1; 5.54

The compound listed as `CC(C)(C)c1cc(-c2oc(CCC(=O)O)nc2-c2ccccc2)cc(C(C)(C)C)c1` shows pEC50 equal to 6.89

The reported value for `Cc1ccccc1-c1nc(CCC(=O)O)oc1-c1ccccc1` in terms of pEC50 is 4.41

The reported pEC50 of the compound `O=C(O)CCCc1cc(-c2cc(Cl)cc(Cl)c2)n(-c2ccccc2)n1` was 6.46

Note to self: pEC50 recorded for `Cc1ccc(-n2nc(CCC(=O)O)cc2-c2cc(Cl)cc(Cl)c2)cc1` was 5.85

Short answer for `O=C(O)CCc1nc(-c2ccccc2)c(-c2ccccc2)o1` : pEC50 was 4.60

* * *

Tested target: Retinoic acid receptor RXR-alpha (Homo sapiens, UniProt P19793)
Sequence (P19793 whole entry): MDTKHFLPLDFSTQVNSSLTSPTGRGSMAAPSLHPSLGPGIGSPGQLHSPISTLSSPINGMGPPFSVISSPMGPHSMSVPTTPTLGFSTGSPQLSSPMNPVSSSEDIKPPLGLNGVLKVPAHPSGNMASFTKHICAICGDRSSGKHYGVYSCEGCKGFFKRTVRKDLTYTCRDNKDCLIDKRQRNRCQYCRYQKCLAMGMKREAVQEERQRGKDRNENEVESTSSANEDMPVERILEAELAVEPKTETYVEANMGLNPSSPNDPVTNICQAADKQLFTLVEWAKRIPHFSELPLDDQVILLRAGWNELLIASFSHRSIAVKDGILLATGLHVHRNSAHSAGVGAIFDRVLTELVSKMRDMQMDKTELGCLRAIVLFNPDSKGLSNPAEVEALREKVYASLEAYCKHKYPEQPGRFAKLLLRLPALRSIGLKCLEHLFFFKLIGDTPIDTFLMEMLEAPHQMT
Experimental protocol: Agonist activity at human RXRalpha transfected in human HEK293T cells co-expressing pFR/pRL-Luc incubated for 14 to 16 hrs by hybrid reporter gene assay
Measurement type: EC50

See these solved cases before continuing.
1) O=C(O)CCc1nc(-c2cc(Cl)cc(Cl)c2)c(-c2cc(Cl)cc(Cl)c2)o1; 1.03 µM
2) O=C(O)CCc1cc(-c2cc(Cl)cc(Cl)c2)n(-c2cccc(Cl)c2)n1; 3.1 µM
3) O=C(O)CCc1cc(-c2cc(Cl)cc(Cl)c2)n(-c2ccc(Cl)cc2)n1; 0.3 µM

Measured EC50, `O=C(O)CCc1nc(-c2ccccc2)c(-c2cc(Cl)ccc2Cl)o1` : 5.8 µM

According to the records, this compound `O=C(O)CCCCc1nc(-c2ccccc2)c(-c2ccccc2)o1` displays EC50 of 8.4 µM

Please fill in: EC50 reported for `O=C(O)c1nc(-c2ccccc2)c(-c2ccccc2)o1` = > 50 µM

Consider `Cc1cc(C)cc(-c2oc(CCC(=O)O)nc2-c2ccccc2)c1` . Its measured EC50 is 0.3 µM

For this compound ( `O=C(O)CCc1nc(-c2ccccc2)c(-c2ccccc2Cl)o1` ), measured EC50 is 17 µM
